# Tested on: Plutella xylostella
# Test protocol: Plutella xylostella (diamond back moth) artificial diet MTP test
# Assay type: in vivo
# Experimental context: 144 h, 200 ppm (concentration in well 18 ppm), L2 larvae, larval mortality and growth regulation after 6 days
Parameter: pest or weed control at 200 ppm

Test system Plutella xylostella; read-out pest or weed control at 200 ppm; what value for O=C(NCc1ccc(C2=COC(c3cc(Cl)cc(Cl)c3)(C(F)(F)F)C2)cc1Cl)c1cccs1 (stereo not drawn) ?
≥ 80%

Reported pest or weed control at 200 ppm for Plutella xylostella, given O=C(NCc1ccc(C2=COC(c3cc(Cl)cc(Cl)c3)(C(F)(F)F)C2)cc1Cl)c1cnnc2ccccc12 (stereo not drawn) ?
≥ 80%

Request: pest or weed control at 200 ppm, test system Plutella xylostella, entry O=C(NCc1ccc(C2=COC(c3cc(Cl)cc(Cl)c3)(C(F)(F)F)C2)cc1Cl)c1ccc(O)c(F)c1 (stereo not drawn)
≥ 80%

Provide value of pest or weed control at 200 ppm for this record tested with Plutella xylostella: CCC(=O)NCc1ccc(C2=COC(c3cc(Cl)cc(Cl)c3)(C(F)(F)F)C2)cc1Cl (stereo not drawn)
≥ 80%

Please give pest or weed control at 200 ppm for each item listed below.
1. CSCC(=O)NCc1ccc(C2=COC(c3cc(Cl)cc(Cl)c3)(C(F)(F)F)C2)cc1Cl (stereo not drawn)
2. CC1CCCCC1C(=O)NCc1ccc(C2=COC(c3cc(Cl)cc(Cl)c3)(C(F)(F)F)C2)cc1Cl (stereo not drawn)
3. Cc1cccnc1C(=O)NCc1ccc(C2=COC(c3cc(Cl)cc(Cl)c3)(C(F)(F)F)C2)cc1Cl (stereo not drawn)
4. O=C(CCC(=O)c1ccccc1)NCc1ccc(C2=COC(c3cc(Cl)cc(Cl)c3)(C(F)(F)F)C2)cc1Cl (stereo not drawn)
5. O=C(NCc1ccc(C2=COC(c3cc(Cl)cc(Cl)c3)(C(F)(F)F)C2)cc1Cl)C1CCCO1 (stereo not drawn)
6. C/N=C1/SC(CC(=O)NCc2ccc(C3=COC(c4cc(Cl)cc(Cl)c4)(C(F)(F)F)C3)cc2Cl)C(=O)N1C (stereo not drawn)
7. Cn1nc(C(=O)NCc2ccc(C3=COC(c4cc(Cl)cc(Cl)c4)(C(F)(F)F)C3)cc2Cl)sc1=O (stereo not drawn)

["≥ 80%", "≥ 80%", "≥ 80%", "≥ 80%", "≥ 80%", "≥ 80%", "≥ 80%"]

Please give pest or weed control at 200 ppm for each item listed below.
1. CC(C)C(=O)NCc1ccc(C2=COC(c3cc(Cl)cc(Cl)c3)(C(F)(F)F)C2)cc1Cl (stereo not drawn)
2. C[C@H](NC(=O)C1CC1)c1ccc(C2=COC(c3cc(Cl)c(Cl)c(Cl)c3)(C(F)(F)F)C2)cc1 (stereo partly drawn)
3. O=C(Cc1ccccc1)NCc1ccc(C2=COC(c3cc(Cl)cc(Cl)c3)(C(F)(F)F)C2)cc1Cl (stereo not drawn)
4. O=C(NCc1ccc(C2=COC(c3cc(Cl)cc(Cl)c3)(C(F)(F)F)C2)cc1Cl)C1CC1 (stereo not drawn)

≥ 80%
≥ 80%
≥ 80%
≥ 80%

###

So I've got a bunch of molecules here, and I need their pest or weed control at 200 ppm values.
# System: Diabrotica balteata
# Test protocol: Diabrotica balteata (corn root worm) artificial diet MTP test
# Type: in vivo
# Experimental context: 120 h, 200 ppm (concentration in well 18 ppm), L2 larvae, larval mortality and growth regulation after 5 days

Given the molecule O=C(NCc1ccc(C2=COC(c3cc(Cl)cc(Cl)c3)(C(F)(F)F)C2)cc1Cl)C1CCCO1 (stereo not drawn) , what is its reported pest or weed control at 200 ppm?
≥ 80%

Please look up its pest or weed control at 200 ppm: O=C(CC(F)(F)F)NCc1ccc(C2=COC(c3cc(Cl)cc(Cl)c3)(C(F)(F)F)C2)cc1Cl (stereo not drawn)
≥ 80%

--- query ---
pest or weed control at 200 ppm for Cn1nc(C(=O)NCc2ccc(C3=COC(c4cc(Cl)cc(Cl)c4)(C(F)(F)F)C3)cc2Cl)sc1=O (stereo not drawn) ?
≥ 80%
